Recorded values, source patent US20080255155A1.

In this section we review reported pIC50 values for a set of molecules.
Tested on: A549
Measurement notes: A549 wound healing inhibition
Test settings: Homo sapiens; A549 cells; read-out: Potency in cell-based assays A549 wound healing inhibition
pIC50: −log10 of the molar value.

Molecule	Property measured	Observed measurement
CN(C)CCCNC(=O)Nc1cc(Oc2ccc(NC(=O)N3CCN(c4ccccc4)C3=O)cc2F)ccn1 [Compound 18c]	pIC50	5.30 to 6.00
CN(C)CCCOC(=O)Nc1cc(Oc2ccc(NC(=O)N3CCN(c4ccccc4)C3=O)cc2F)ccn1 [Compound 18i]	pIC50	5.30 to 6.00
CNC(=O)c1cc(Oc2ccc(NC(=O)N3CCN(c4ccccc4)C3=O)cc2F)ccn1 [Compound 87a]	pIC50	5.30 to 6.00
O=C(Nc1ccc(Oc2ccncc2)c(F)c1)N1CCN(c2cccc(C(F)(F)F)c2)C1=O [Compound 21c]	pIC50	5.00 to 5.30
CN(C)[C@@H]1CCN(C(=O)Nc2cc(Oc3ccc(NC(=O)N4CCN(c5ccc(F)cc5)C4=O)cc3F)ccn2)C1 [Compound 18g]	pIC50	≤ 6.00
CN(C)CCOC(=O)Nc1cc(Oc2ccc(NC(=O)N3CCN(c4ccccc4)C3=O)cc2F)ccn1 [Compound 18d]	pIC50	< 5.00

Measured pIC50, O=C(Nc1ccc(Oc2ccnc(Nc3ccccc3)n2)c(F)c1)N1CCN(c2ccccc2)C1=O [Compound 61a] : 5.00 to 5.30

====

Study target: VEGF receptor KDR (Homo sapiens, UniProt P35968)
Sequence (P35968 806-1356): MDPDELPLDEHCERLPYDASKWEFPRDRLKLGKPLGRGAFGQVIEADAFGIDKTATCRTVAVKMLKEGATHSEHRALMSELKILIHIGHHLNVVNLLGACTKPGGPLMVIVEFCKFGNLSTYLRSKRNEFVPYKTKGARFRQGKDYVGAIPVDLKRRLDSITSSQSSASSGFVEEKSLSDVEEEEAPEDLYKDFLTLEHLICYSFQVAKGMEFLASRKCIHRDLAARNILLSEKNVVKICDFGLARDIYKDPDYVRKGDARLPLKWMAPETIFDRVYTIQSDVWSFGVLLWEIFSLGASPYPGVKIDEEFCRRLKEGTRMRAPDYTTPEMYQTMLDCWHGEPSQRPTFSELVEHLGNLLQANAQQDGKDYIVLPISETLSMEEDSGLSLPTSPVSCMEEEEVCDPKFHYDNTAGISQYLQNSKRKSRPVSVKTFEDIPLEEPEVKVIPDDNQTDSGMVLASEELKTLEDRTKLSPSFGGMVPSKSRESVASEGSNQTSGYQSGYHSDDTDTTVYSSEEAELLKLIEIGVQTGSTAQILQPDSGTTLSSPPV
Measurement notes: In vitro receptor tyrosine kinase assay, VEGF receptor KDR (DELFIA)
Test settings: ATP 0.6 uM, enzyme 5 nM; read-out: Potency in enzyme assays VEGF
Property measured: IC50

Check out these entries, answers already filled in.
Compound	IC50
O=C(Nc1ccc(Oc2ccncc2)c(F)c1)N1CCN(c2cccc(C(F)(F)F)c2)C1=O [Compound 21c]	≥ 1000 nM
CN(C)CCOC(=O)Nc1cc(Oc2ccc(NC(=O)N3CCN(c4ccccc4)C3=O)cc2F)ccn1 [Compound 18d]	≥ 1000 nM
O=C(Nc1ccc(Oc2ccncc2)c(F)c1)N1CCN(c2ccccc2Cl)C1=O [Compound 21h]	≥ 1000 nM

Measured IC50, CN(C)[C@@H]1CCN(C(=O)Nc2cc(Oc3ccc(NC(=O)N4CCN(c5ccccc5)C4=O)cc3F)ccn2)C1 [Compound 18e] : 250 to 500 nM

====

In this section we review reported pIC50 values for a set of compounds.
Study target: VEGF receptor KDR (Homo sapiens, UniProt P35968)
Measurement notes: In vitro receptor tyrosine kinase assay, VEGF receptor KDR (DELFIA)
Test settings: ATP 0.6 uM, enzyme 5 nM; read-out: Potency in enzyme assays VEGF
pIC50: −log10 of the molar value.

// pIC50 (VEGF receptor KDR (Homo sapiens, UniProt P35968)) for O=C(Nc1cc(Oc2ccc(NC(=O)N3CCN(c4ccc(F)cc4)C3=O)cc2F)ccn1)N1CCCC1 [Compound 18b] = > 6.60

// pIC50 (VEGF receptor KDR (Homo sapiens, UniProt P35968)) for CN(C)[C@H]1CCN(C(=O)Nc2cc(Oc3ccc(NC(=O)N4CCN(c5ccccc5)C4=O)cc3F)ccn2)C1 [Compound 18f] = > 6.60

// pIC50 (VEGF receptor KDR (Homo sapiens, UniProt P35968)) for O=C(CC(Nc1ccc(F)cc1)C(F)(F)F)Nc1ccc(Oc2cc(NC(=O)N3CCCC3)ncn2)c(F)c1 (stereo not shown) = ≤ 6.00

// pIC50 (VEGF receptor KDR (Homo sapiens, UniProt P35968)) for CNC(=O)c1cc(Oc2ccc(NC(=O)N3CCN(c4ccccc4)C3=O)cc2F)ccn1 [Compound 87a] = 6.30 to 6.60
